Listing: pIC50 of selected compounds
- target: JARID1A (Homo sapiens, UniProt P29375)
- Construct: FLAG tagged full length recombinant JARID1A and PLU1 proteins were purified from Sf9 insect cells; FLAG
- Sequence (P29375 whole entry): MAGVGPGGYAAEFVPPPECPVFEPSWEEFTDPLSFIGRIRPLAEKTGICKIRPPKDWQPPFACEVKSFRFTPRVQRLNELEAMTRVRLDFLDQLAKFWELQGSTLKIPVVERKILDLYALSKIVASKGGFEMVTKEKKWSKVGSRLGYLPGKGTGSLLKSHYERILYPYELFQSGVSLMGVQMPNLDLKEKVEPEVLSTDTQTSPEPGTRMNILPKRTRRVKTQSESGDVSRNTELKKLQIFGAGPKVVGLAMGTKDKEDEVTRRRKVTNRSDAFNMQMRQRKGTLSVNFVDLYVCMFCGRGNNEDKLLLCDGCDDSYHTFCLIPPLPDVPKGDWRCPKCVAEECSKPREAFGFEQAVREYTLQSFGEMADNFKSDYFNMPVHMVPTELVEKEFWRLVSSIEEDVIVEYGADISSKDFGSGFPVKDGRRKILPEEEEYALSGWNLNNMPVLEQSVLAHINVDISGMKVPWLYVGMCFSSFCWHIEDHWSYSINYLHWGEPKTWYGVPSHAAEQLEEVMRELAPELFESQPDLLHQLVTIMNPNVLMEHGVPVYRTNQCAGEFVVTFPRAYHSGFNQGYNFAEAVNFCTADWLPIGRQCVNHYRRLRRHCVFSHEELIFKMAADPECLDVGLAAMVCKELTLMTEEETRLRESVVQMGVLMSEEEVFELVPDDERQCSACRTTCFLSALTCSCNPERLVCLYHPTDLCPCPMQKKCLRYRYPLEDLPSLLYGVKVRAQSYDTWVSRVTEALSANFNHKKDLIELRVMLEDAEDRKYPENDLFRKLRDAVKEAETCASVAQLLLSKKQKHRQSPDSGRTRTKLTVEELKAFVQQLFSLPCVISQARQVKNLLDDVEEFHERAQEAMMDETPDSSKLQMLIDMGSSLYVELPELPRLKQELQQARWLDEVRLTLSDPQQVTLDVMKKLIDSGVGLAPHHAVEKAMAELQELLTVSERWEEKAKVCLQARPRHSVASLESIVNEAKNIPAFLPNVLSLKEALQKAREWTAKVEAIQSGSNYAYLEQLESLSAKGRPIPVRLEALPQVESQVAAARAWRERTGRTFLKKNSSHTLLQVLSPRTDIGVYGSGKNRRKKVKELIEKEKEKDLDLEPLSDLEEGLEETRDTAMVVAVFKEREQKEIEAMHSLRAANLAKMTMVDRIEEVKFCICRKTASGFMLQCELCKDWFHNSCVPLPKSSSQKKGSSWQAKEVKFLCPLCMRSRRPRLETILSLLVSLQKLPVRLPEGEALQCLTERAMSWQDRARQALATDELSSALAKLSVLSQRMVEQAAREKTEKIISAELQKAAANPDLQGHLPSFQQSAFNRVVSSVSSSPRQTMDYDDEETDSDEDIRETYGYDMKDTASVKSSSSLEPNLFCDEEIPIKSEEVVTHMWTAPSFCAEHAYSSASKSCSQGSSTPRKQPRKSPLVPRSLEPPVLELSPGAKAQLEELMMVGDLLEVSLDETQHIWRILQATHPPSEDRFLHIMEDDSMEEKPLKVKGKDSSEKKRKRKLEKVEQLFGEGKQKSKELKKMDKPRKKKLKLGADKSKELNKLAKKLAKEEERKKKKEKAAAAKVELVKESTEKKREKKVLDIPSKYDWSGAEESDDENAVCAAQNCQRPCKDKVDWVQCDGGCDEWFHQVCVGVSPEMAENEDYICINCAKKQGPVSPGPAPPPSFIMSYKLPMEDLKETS
- procedure_summary: JARID1A demethylase assay on H3K4Me3 peptide (RapidFire HT-MS)
pIC50: −log10 of the molar value.

structure | pIC50
CCc1c(COC)[nH]c2c(C#N)cnn2c1=O | ≥ 6.00
CCOC(=O)c1[nH]c2c(C#N)cnn2c(=O)c1CC | ≥ 6.00
CCc1c(C(=O)NC)[nH]c2c(C#N)cnn2c1=O | ≥ 6.00
CCc1c(CO)[nH]c2c(C#N)cnn2c1=O | ≥ 6.00
CCc1c(C)n(C)c2c(C#N)cnn2c1=O | 5.00 to 6.00

====

- target: PLU-1 (Homo sapiens, UniProt Q9UGL1)
- Construct: FLAG tagged full length recombinant JARID1A and PLU1 proteins were purified from Sf9 insect cells; FLAG
- procedure_summary: PLU-1 demethylase assay on H3K4Me3 peptide (RapidFire HT-MS)
// reported IC50 per item

structure | IC50
CCc1c(C(=O)NC)[nH]c2c(C#N)cnn2c1=O | 1000 to 10000 nM
CCc1c(COC)[nH]c2c(C#N)cnn2c1=O | ≤ 1000 nM
CCc1c(CO)[nH]c2c(C#N)cnn2c1=O | ≤ 1000 nM
CCOC(=O)c1[nH]c2c(C#N)cnn2c(=O)c1CC | ≤ 1000 nM
CCc1c(C)n(C)c2c(C#N)cnn2c1=O | 1000 to 10000 nM

====

Item-by-item account of pIC50
- target: KDM5A (Homo sapiens)
- Construct: Full length KDM5A enzyme was expressed and purified inhouse; made in house
- procedure_summary: KDM5 enzyme assay, KDM5A HTRF (Example 463)
- Format: biochemical
- condition: compounds of Examples 1-432; read-out: Example 463 Assay KDM5A HTRF IC50
pIC50: −log10 of the molar value.

compound | pIC50
CC(C)c1c(-c2ccc(C(N)=O)cc2)[nH]c2c(C#N)cnn2c1=O | 7.60
CCc1c(-c2cccc(-c3cnn(C)c3)c2)[nH]c2c(C#N)cnn2c1=O | 7.89
CC(=O)/C=C/c1cccc(Cn2cc(-c3[nH]c4c(C#N)cnn4c(=O)c3C(C)C)cn2)n1 | 7.26
CC(C)c1c(-c2cncnc2)[nH]c2c(C#N)cnn2c1=O | 8.00
CCC(=O)N1CC=C(c2[nH]c3c(C#N)cnn3c(=O)c2C(C)C)C1 | 7.26
CC(C)c1c(-c2ccn(C(C)C)n2)[nH]c2c(C#N)cnn2c1=O | 7.46
CCc1c(-c2cccc(NC(=O)OC(C)(C)C)c2)[nH]c2c(C#N)cnn2c1=O | 7.70
CC(=O)N1CCC=C(c2[nH]c3c(C#N)cnn3c(=O)c2C(C)C)C1 | 7.46
Cc1[nH]c2c(C#N)cnn2c(=O)c1-c1ccco1 | 5.54
CC(C)c1c(-c2cccc(-c3ccccc3)c2)[nH]c2c(C#N)cnn2c1=O | 7.85
CC(C)c1c(-c2cnn(Cc3ccccc3Cl)c2)[nH]c2c(C#N)cnn2c1=O | 8.07
Cc1[nH]c2c(C#N)cnn2c(=O)c1Sc1ccccc1Cl | 4.68
CC(C)c1c(-c2cnn(Cc3cccnc3)c2)[nH]c2c(C#N)cnn2c1=O | 7.80
CC(C)c1cn(C)c2c(C#N)cnn2c1=O | 6.21
CC(C)c1c(-c2cnn(S(=O)(=O)c3ccccc3)c2)[nH]c2c(C#N)cnn2c1=O | 8.10
CC(C)c1c(-c2ccc(C3CC3)nc2)[nH]c2c(C#N)cnn2c1=O | 7.47
CCc1c(-c2cc[nH]c2)[nH]c2c(C#N)cnn2c1=O | 8.22
CCc1c(C)n(CCO)c2c(C#N)cnn2c1=O | 5.66
CC(C)c1c(-c2cnn(Cc3cccc(Oc4ccccc4)c3)c2)[nH]c2c(C#N)cnn2c1=O | 8.00
CC(C)c1c(-c2cnn(C)c2)n(C)c2c(C#N)cnn2c1=O | 7.00
CC(C)c1c(-c2cnn(Cc3cccc4ccsc34)c2)[nH]c2c(C#N)cnn2c1=O | 7.82
CC(C)c1c(-c2cnn(CCC(F)(F)F)c2)[nH]c2c(C#N)cnn2c1=O | 7.46
CCc1c(-c2cccc(-c3ccccc3)c2)[nH]c2c(C#N)cnn2c1=O | 8.00
CC(C)c1c(-c2cccs2)[nH]c2c(C#N)cnn2c1=O | 8.08
COC(=O)c1cc(-c2[nH]c3c(C#N)cnn3c(=O)c2C(C)C)c[nH]1 | 7.82
CC(C)c1c(-c2cccc(/C=C/c3ccccc3)c2)[nH]c2c(C#N)cnn2c1=O | 7.70
CC(C)c1c(-c2ccn(C)n2)[nH]c2c(C#N)cnn2c1=O | 7.82
CC(C)c1c(-c2cnn(C(C)c3cscn3)c2)[nH]c2c(C#N)cnn2c1=O (stereo not drawn) | 7.89
CC(C)c1c(-c2cnn(CCN3CCC(F)(F)C3)c2)[nH]c2c(C#N)cnn2c1=O | 7.96
CC(C)c1c(-c2ccco2)[nH]c2c(C#N)cnn2c1=O | 8.19
CC(C)c1c(-c2cc(C3CC3)nn2C2CCCC2)[nH]c2c(C#N)cnn2c1=O | 6.96
CC(C)c1c(-c2cc(Cl)cc(Cl)c2)[nH]c2c(C#N)cnn2c1=O | 7.70
CC(C)c1c(-c2cccc(F)c2)[nH]c2c(C#N)cnn2c1=O | 8.05
CC(C)c1c(-c2ccn(S(=O)(=O)C3CC3)n2)[nH]c2c(C#N)cnn2c1=O | 7.96
CC(C)c1c(/C=C/C2CC2)[nH]c2c(C#N)cnn2c1=O | 7.55
CC(C)c1c(-c2cnn(CCC#N)c2)[nH]c2c(C#N)cnn2c1=O | 7.89

====

- target: KDM5A (Homo sapiens, UniProt P29375)
- Construct: Full length KDM5A enzyme was expressed and purified inhouse; made in house
- Sequence (P29375 whole entry): as above
- procedure_summary: KDM5 enzyme assay, KDM5A HTRF (Example 463)
- Assay type: biochemical
- condition: compounds of Examples 1-432; read-out: Example 463 Assay KDM5A HTRF IC50
Documented IC50 across a set of molecules

molecule | target | IC50, nM
CC(C)c1c(-c2cccc(-c3ccn[nH]3)c2)[nH]c2c(C#N)cnn2c1=O | KDM5A (Homo sapiens, UniProt P29375) | 14
CC(C)c1c(-c2cc(C3CC3)co2)n(C)c2c(C#N)cnn2c1=O | KDM5A (Homo sapiens, UniProt P29375) | 57
CC(C)c1c(-c2cc(C3CC3)nn2C(C)C)[nH]c2c(C#N)cnn2c1=O | KDM5A (Homo sapiens, UniProt P29375) | 48
CC(C)c1c(-c2cnn(S(C)(=O)=O)c2)[nH]c2c(C#N)cnn2c1=O | KDM5A (Homo sapiens, UniProt P29375) | 13
CC(C)c1c(-c2ccc(OCC3CC3)cc2)[nH]c2c(C#N)cnn2c1=O | KDM5A (Homo sapiens, UniProt P29375) | 23
CCc1c(-c2ncc(-c3ccccc3)o2)[nH]c2c(C#N)cnn2c1=O | KDM5A (Homo sapiens, UniProt P29375) | 15
Cn1c(-c2ccccc2)c(-c2ccncc2)c(=O)n2ncc(C#N)c12 | KDM5A (Homo sapiens, UniProt P29375) | 9600
CC(C)c1c(-c2cc3ccccc3o2)[nH]c2c(C#N)cnn2c1=O | KDM5A (Homo sapiens, UniProt P29375) | 4.5
CCc1c(-c2cccc(/C=C/c3ccccc3)c2)[nH]c2c(C#N)cnn2c1=O | KDM5A (Homo sapiens, UniProt P29375) | 23
CC(C)c1c(NC(=O)c2ccccc2)[nH]c2c(C#N)cnn2c1=O | KDM5A (Homo sapiens, UniProt P29375) | 26
CC(C)c1c(-c2cccc(-c3ccc(NS(C)(=O)=O)cc3)c2)[nH]c2c(C#N)cnn2c1=O | KDM5A (Homo sapiens, UniProt P29375) | 27
CC(C)c1c(-c2cnn(C(CO)c3ccccc3)c2)[nH]c2c(C#N)cnn2c1=O (stereo not drawn) | KDM5A (Homo sapiens, UniProt P29375) | 32
CC(C)c1c(-c2cc(CO)co2)[nH]c2c(C#N)cnn2c1=O | KDM5A (Homo sapiens, UniProt P29375) | 7.7
COc1cccc(-c2[nH]c3c(C#N)cnn3c(=O)c2C(C)C)c1 | KDM5A (Homo sapiens, UniProt P29375) | 10
CCC(C)(C)n1cc(-c2[nH]c3c(C#N)cnn3c(=O)c2C(C)C)cn1 | KDM5A (Homo sapiens, UniProt P29375) | 46
CC(C)c1c(-c2cccc(OC(F)(F)F)c2)[nH]c2c(C#N)cnn2c1=O | KDM5A (Homo sapiens, UniProt P29375) | 30
CC(C)c1c(-c2cccc(C#N)c2)n(C)c2c(C#N)cnn2c1=O | KDM5A (Homo sapiens, UniProt P29375) | 200
CC(C)c1c(-c2ccc(C(=O)NC3CC3)cc2)[nH]c2c(C#N)cnn2c1=O | KDM5A (Homo sapiens, UniProt P29375) | 27
CC(C)c1c(-c2coc3ccccc23)[nH]c2c(C#N)cnn2c1=O | KDM5A (Homo sapiens, UniProt P29375) | 20
C/C=C/c1[nH]c2c(C#N)cnn2c(=O)c1C(C)C | KDM5A (Homo sapiens, UniProt P29375) | 24
CC(C)c1c(-c2cnn(Cc3ccsc3)c2)[nH]c2c(C#N)cnn2c1=O | KDM5A (Homo sapiens, UniProt P29375) | 11
COc1ccc(-c2[nH]c3c(C#N)cnn3c(=O)c2C(C)C)cc1CO | KDM5A (Homo sapiens, UniProt P29375) | 18
C=CC(=O)NCCn1cc(-c2[nH]c3c(C#N)cnn3c(=O)c2C(C)C)cn1 | KDM5A (Homo sapiens, UniProt P29375) | 18
CC(C)c1c(-c2ccc(N3CCNCC3)cc2)[nH]c2c(C#N)cnn2c1=O | KDM5A (Homo sapiens, UniProt P29375) | 10
C=Cc1c(-c2ccccc2)[nH]c2c(C#N)cnn2c1=O | KDM5A (Homo sapiens, UniProt P29375) | 23
COCCn1cc(-c2[nH]c3c(C#N)cnn3c(=O)c2C(C)C)cn1 | KDM5A (Homo sapiens, UniProt P29375) | 11
N#Cc1cnn2c(=O)c(C3CCC3)c(-c3cnn(C4CCCCC4)c3)[nH]c12 | KDM5A (Homo sapiens, UniProt P29375) | 10.4
CC(C)c1c(-c2cnn(C(C)C)c2)[nH]c2c(C#N)cnn2c1=O | KDM5A (Homo sapiens, UniProt P29375) | 19
CCc1c(-c2nc(C)no2)[nH]c2c(C#N)cnn2c1=O | KDM5A (Homo sapiens, UniProt P29375) | 18
CC(C)c1c(-c2ccc(F)c(Cl)c2)[nH]c2c(C#N)cnn2c1=O | KDM5A (Homo sapiens, UniProt P29375) | 22
CCc1c(C(=O)O)[nH]c2c(C#N)cnn2c1=O | KDM5A (Homo sapiens, UniProt P29375) | 220
CC(C)c1c(-c2cnn(Cc3ccc(F)c(F)c3)c2)[nH]c2c(C#N)cnn2c1=O | KDM5A (Homo sapiens, UniProt P29375) | 9
CCC(=O)N1CC(n2cc(-c3[nH]c4c(C#N)cnn4c(=O)c3C(C)C)cn2)C1 | KDM5A (Homo sapiens, UniProt P29375) | 20
CCc1c[nH]c2c(C#N)cnn2c1=O | KDM5A (Homo sapiens, UniProt P29375) | 37
CC(C)c1c(-c2ccc(S(C)(=O)=O)c(F)c2)[nH]c2c(C#N)cnn2c1=O | KDM5A (Homo sapiens, UniProt P29375) | 21
CC(C)c1c(-c2ccnn2C(C)C)[nH]c2c(C#N)cnn2c1=O | KDM5A (Homo sapiens, UniProt P29375) | 77
